# credit: PubChem BioAssay AID1159580

Test: chemical genetic growth profiling, strain panel (AID 1159580);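 further: tested at 20 µM; growth read once vehicle control cultures reached saturation at 30 °C; 1 = growth at the plate median or of vehicle wells; lower values mean less growth of the strain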
Conditions: S. cerevisiae deletion strains, growth OD, locus YOL078W, strain AVO1
The whole screen tested about 5,500 compounds, of which about 2,000 (36%) were called active. About 18% were inconclusive and are not listed. No stated cut-off is given here; in the data, active means normalized growth mostly below about 0.91 (no sharp cut-off); inconclusive means no clear call, values can overlap the other calls; inactive means mostly above about 0.92. This is one part of the list.
Outcome codes: active, inactive

                                    compound       cat
 0      CSc1sc(-c2ccn[nH]2)c(-c2ccccc2)c1C#N  inactive
 1  COc1ccc(/C(C#N)=C2C=C/C(=N/O)C(Cl)=C\2)cc1  inactive
 2    N#C/C(=C\C=C\c1ccccc1)c1nc2ccccc2[nH]1  inactive
 3    CCCCCc1ccc(S(=O)(=O)Nc2ncc(C)cc2Br)cc1  inactive
 4                    CCCCc1ccc(N=CNO)c(C)c1  inactive
 5     Nc1ccccc1C(=O)N/N=C\c1cc(Cl)cc(Cl)c1O  inactive
 6  C(=NC(N=Cc1ccccc1)c1ccccc1)c1ccccc1 (centres undefined)  inactive
 7  Oc1ccc(-n2nnnc2SCc2ccc(OC(F)(F)F)cc2)cc1  inactive
 8  Cc1c(NCN2C(=O)CCC2=O)cc2c(c1[N+](=O)[O-])C(C)(C)CC2(C)C  inactive
 9  Cc1nn(Cc2cccc(C(=O)O/N=C(/N)c3ccc(Cl)cc3)c2)c(C)c1Br  inactive
10  CC(NC(=S)Nc1ccc(Oc2ccc(Cl)cc2)cc1)c1ccccc1 (centres undefined)  inactive
11  CN(NC(=S)Nc1cc(Cl)ccc1Cl)c1ccc(C(F)(F)F)cc1[N+](=O)[O-]  inactive
12              O=C(O)c1cccc2cccc(C(=O)O)c12    active
13  O=C(NNc1c(Cl)cccc1Cl)c1ccc([N+](=O)[O-])o1  inactive
14  O=C(SCc1c(Cl)cccc1Cl)c1ccc([N+](=O)[O-])o1  inactive
15  FC(F)(F)c1ccc(NC(=S)Nc2ccc(C(F)(F)F)cc2Cl)c(Cl)c1  inactive
16   O=C(Nc1ccc(Cl)cc1)c1csc([N+](=O)[O-])c1  inactive
17  O=C(Nc1ccc(OC(F)(F)F)cc1)Nc1cncc(C(F)(F)F)c1  inactive
18  COc1ccc(-c2cc(NS(=O)(=O)c3cccc(F)c3)n(-c3ccc(Cl)c(Cl)c3)n2)cc1  inactive
19           Cc1ccc(C(=O)Nc2ccc3ccccc3n2)cc1  inactive
20  O=C(N/N=C\c1cc(Cl)cc(Cl)c1O)c1ccccc1Oc1ccccc1  inactive
21                N#Cc1c(N)sc2c1CCc1ccccc1-2  inactive
22   N#C/C(=C\c1ccc(C(F)(F)F)cc1)c1ccc(O)cc1  inactive
23  O=C1OC(Nc2ccccc2SCc2ccccc2Cl)c2ccccc21 (centres undefined)  inactive

###

Assay: chemical genetic growth profiling, strain panel (AID 1159580);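 further: tested at 20 µM; growth read once vehicle control cultures reached saturation at 30 °C; 1 = growth at the plate median or of vehicle wells; lower values mean less growth of the strain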
Details: S. cerevisiae deletion strains, growth OD, locus YAL021C, strain ccr4, active compounds read low
Among all 5,500 compounds or so, about 2,000 (36%) were called active. Not shown: some 18% with an inconclusive outcome. This is one part of the list.

MOLECULE	normalized growth
CCOc1nc2cccc(C(=O)OC(C)OC(=O)OC3CCCCC3)c2n1Cc1ccc(-c2ccccc2-c2nn[nH]n2)cc1 (stereo unspecified)	1
O=C1c2ccccc2-c2cccc3cccc1c23	0.946
COc1ccc(Cc2nccc3cc(OC)c(OC)cc23)cc1OC	1.04
Nc1ncnc2nc[nH]c12	0.99
CC(=O)O[C@H]1CC2CCC3C(CC[C@@]4(C)C3C[C@H]([N+]3(C)CCCCC3)[C@@H]4OC(C)=O)[C@@]2(C)C[C@@H]1[N+]1(C)CCCCC1 (stereo partly specified)	1.02
OC[C@@H](O)C(O[C@@H]1O[C@H](CO)[C@H](O)[C@H](O)[C@H]1O)[C@H](O)[C@@H](O)CO (stereo partly specified)	0.969
c1coc(CNc2ncnc3nc[nH]c23)c1	0.995
CCNc1nc(Cl)nc(NC(C)C)n1	0.995
CC(=O)Oc1ccc2c(c1)CCC1C2CCC2(C)C1CC(OC(C)=O)C2OC(C)=O (stereo unspecified)	0.948
O=C(O)CCCN1C(=O)c2cccc3cccc(c23)C1=O	0.983
C[N+]1(C)CCc2cc3c(cc2[C@H]1C1OC(=O)c2c1ccc1c2OCO1)OCO3 (stereo partly specified)	0.981
CC1(C)C=Cc2c(cc3occ(-c4ccc5c(c4)OCO5)c(=O)c3c2O)O1	0.931
COc1cc(OC)c2c(=O)c(-c3ccc4c(c3)OCO4)coc2c1	1.01
CCCCC/C=C\C/C=C\C/C=C\C/C=C\CCCC(=O)O	0.986
O=c1c(-c2ccc3c(c2)OCO3)coc2cc(O)ccc12	0.994
Cn1cnc([N+](=O)[O-])c1Sc1ncnc2nc[nH]c12	1.03
CCCCC(=O)N(Cc1ccc(-c2ccccc2-c2nn[nH]n2)cc1)[C@H](C(=O)O)C(C)C	0.974
CC(C)=CCc1c(O)cc2occ(-c3ccc4c(c3)OCO4)c(=O)c2c1O	1.05
CC(=O)OC1CCC2C3CCc4cc(O)ccc4C3CCC12C (stereo unspecified)	0.975
CCCCC(=O)O[C@H]1CCC2C3CCc4cc(O)ccc4C3CC[C@@]21C (stereo partly specified)	1.02
C[C@]12CCC3c4ccc(O)cc4CCC3C1CC[C@@H]2OC(=O)CCC1CCCC1 (stereo partly specified)	1.03
